Measured percent inhibition of viability accompanies every entry in the list below.
tested on: normal primary NK cells, pool 1 (3 donors), resting (IL-2 0 ng/mL); experiment: percent inhibition of viability; higher = more inhibition; details: 72 h; 1000 nM;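 further: normalised to DMSO-only wells as negative and benzethonium chloride as positive control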
API: value field is a number in %; no unit string.

compound="CC(=O)c1c(C)c2cnc(Nc3ccc(N4CCNCC4)cn3)nc2n(C2CCCC2)c1=O [Palbociclib] (max concentration tested 10000 nM)" target="normal primary NK cells, pool 1 (3 donors), resting (IL-2 0 ng/mL)" value_observed=-17
compound="CCn1c(-c2nonc2N)nc2cnc(Oc3cccc(NC(=O)c4ccc(OCCN5CCOCC5)cc4)c3)cc21 (max concentration tested 10000 nM)" target="normal primary NK cells, pool 1 (3 donors), resting (IL-2 0 ng/mL)" value_observed=11.9
compound="CCn1c(-c2nonc2N)nc2c(C#CC(C)(C)O)ncc(OC[C@H]3CCCNC3)c21 (max concentration tested 10000 nM)" target="normal primary NK cells, pool 1 (3 donors), resting (IL-2 0 ng/mL)" value_observed=18.4
compound="O=C(Nc1cccc(Cl)c1)Nc1ncc(CCNc2ncnc3ccsc23)s1 [SNS-314] (max concentration tested 1000 nM)" target="normal primary NK cells, pool 1 (3 donors), resting (IL-2 0 ng/mL)" value_observed=20.9
compound="COc1cc2c(Nc3ccc(Cl)c(Cl)c3F)ncnc2cc1OC[C@@H]1C[C@@H]2CN(C)C[C@@H]2C1 [XL-647] (max concentration tested 1000 nM)" target="normal primary NK cells, pool 1 (3 donors), resting (IL-2 0 ng/mL)" value_observed=64.4

Shifting focus to the compound that follows.
Recorded result, Cc1[nH]c(/C=C2\C(=O)Nc3ccccc32)c(C)c1CCC(=O)O [Orantinib] (max concentration tested 10000 nM) , percent inhibition of viability: 12.2
